Data credit: paper PMC8197275

# assayDetails: Cytotoxicity, MTT test, HCT-116
# Type: cell-based
# conditionsUsed: human, HCT-116 cells; colorectal HCT-116, 72 h MTT
In this section, each of the compounds is paired with its reported CC50 at 72 h.
Lab book: enter the figure in µM, no units written.

Solved cases (2 shown):
{"columns": ["compound", "unitsLabel", "CC50 at 72 h"],
 "data": [
  ["CC(C)=CCC/C(C)=C/CSc1n[nH]c(C23CC4CC(CC(C4)C2)C3)n1 [20c]", "µM", 16],
  ["CC1(C)[C@H]2CC=C(CCSc3n[nH]c(C45CC6CC(CC(C6)C4)C5)n3)[C@@H]1C2 [20g]", "µM", 34]
]}

In plain terms, C=C(C)[C@@H]1CC=C(CSc2n[nH]c(C34CC5CC(CC(C5)C3)C4)n2)CC1 [20e] has a documented CC50 at 72 h of 15

Consider CC(C)CCCC(C)CCSc1n[nH]c(C23CC4CC(CC(C4)C2)C3)n1 (centres unmarked) [20a] . Its measured CC50 at 72 h is 27

* * *

# assayDetails: Cytotoxicity, MTT test, SW837
# Format: cell-based
# conditionsUsed: human, SW837 cells; colorectal SW837, 72 h MTT
observable: CC50 at 72 h

For orientation, consider the following solved cases.
{"columns": ["compound", "result"],
 "data": [
  ["CC(C)=CCC[C@H](C)CCSc1n[nH]c(C23CC4CC(CC(C4)C2)C3)n1 [20b]", "41 µM"],
  ["CC(C)=CCCC(C)CC(=O)Nc1nnc(C23CC4CC(CC(C4)C2)C3)s1 (stereo not shown) [25b]", "83 µM"],
  ["CC(C)CCCC(C)CC(=O)Nc1nnc(C23CC4CC(CC(C4)C2)C3)s1 (stereo not shown) [25a]", "> 100 µM"],
  ["CC(C)CCCC(C)CCSc1n[nH]c(C23CC4CC(CC(C4)C2)C3)n1 (stereo not shown) [20a]", "52 µM"]
]}

// recorded CC50 at 72 h for CC(C)=CCC/C(C)=C\CSc1n[nH]c(C23CC4CC(CC(C4)C2)C3)n1 [20d] : 17 µM

# compound CC1(C)[C@H]2CC=C(C(=O)Nc3nnc(C45CC6CC(CC(C6)C4)C5)s3)[C@@H]1C2 [25c] ; its CC50 at 72 h = > 100 µM

Please fill in: CC50 at 72 h reported for CC(C)=CCC/C(C)=C/CSc1n[nH]c(C23CC4CC(CC(C4)C2)C3)n1 [20c] = 41 µM

The compound listed as CC1(C)[C@H]2CC=C(CCSc3n[nH]c(C45CC6CC(CC(C6)C4)C5)n3)[C@@H]1C2 [20g] shows CC50 at 72 h equal to 40 µM

For reference, reported CC50 at 72 h for CC1(C)[C@H]2CC=C(CSc3n[nH]c(C45CC6CC(CC(C6)C4)C5)n3)[C@@H]1C2 [20f] stands at 46 µM

# CC50 at 72 h (compound: C=C(C)[C@@H]1CC=C(CSc2n[nH]c(C34CC5CC(CC(C5)C3)C4)n2)CC1 [20e] ) is 40 µM

* * *

# assayDetails: Cytotoxicity, EZ4U Cell Proliferation and Cytotoxicity Assay, HeLa
# Type: cell-based
# conditionsUsed: human, HeLa cells, cervical cancer HeLa
Binarize CC50 at 3 days at 60 µM; below is 1 (yes), at or above is 0 (no).

For orientation, consider the following solved cases.
{"columns": ["compound", "classification"],
 "data": [
  ["CC(C)=CCC/C(C)=C\\CSc1n[nH]c(C23CC4CC(CC(C4)C2)C3)n1 [20d]", "1 (yes)"],
  ["C=C(C)[C@@H]1CC=C(CSc2n[nH]c(C34CC5CC(CC(C5)C3)C4)n2)CC1 [20e]", "1 (yes)"],
  ["CC(C)=CCC/C(C)=C/CSc1n[nH]c(C23CC4CC(CC(C4)C2)C3)n1 [20c]", "0 (no)"],
  ["CC(C)=CCC[C@H](C)CCSc1n[nH]c(C23CC4CC(CC(C4)C2)C3)n1 [20b]", "0 (no)"],
  ["CC1(C)[C@H]2CC=C(CCSc3n[nH]c(C45CC6CC(CC(C6)C4)C5)n3)[C@@H]1C2 [20g]", "0 (no)"],
  ["CC(C)=CCCC(C)CC(=O)Nc1nnc(C23CC4CC(CC(C4)C2)C3)s1 (stereo not shown) [25b]", "0 (no)"],
  ["CC(C)CCCC(C)CC(=O)Nc1nnc(C23CC4CC(CC(C4)C2)C3)s1 (stereo not shown) [25a]", "0 (no)"],
  ["CC1(C)[C@H]2CC=C(CSc3n[nH]c(C45CC6CC(CC(C6)C4)C5)n3)[C@@H]1C2 [20f]", "1 (yes)"],
  ["CC(C)CCCC(C)CCSc1n[nH]c(C23CC4CC(CC(C4)C2)C3)n1 (stereo not shown) [20a]", "0 (no)"]
]}

Alright, here's another compound for you.
IN: State whether 60 µM exceeds CC50 at 3 days recorded for CC1(C)[C@H]2CC=C(C(=O)Nc3nnc(C45CC6CC(CC(C6)C4)C5)s3)[C@@H]1C2 [25c] .
OUT: 0 (no)
